These measurements were taken from patent US12358915B2.

# system-tested: METTL3/14 (Homo sapiens, UniProt Q86U44)
# Construct: The enzyme used was full-length his-tagged METTL3; His; made in house
# Sequence (Q86U44 whole entry): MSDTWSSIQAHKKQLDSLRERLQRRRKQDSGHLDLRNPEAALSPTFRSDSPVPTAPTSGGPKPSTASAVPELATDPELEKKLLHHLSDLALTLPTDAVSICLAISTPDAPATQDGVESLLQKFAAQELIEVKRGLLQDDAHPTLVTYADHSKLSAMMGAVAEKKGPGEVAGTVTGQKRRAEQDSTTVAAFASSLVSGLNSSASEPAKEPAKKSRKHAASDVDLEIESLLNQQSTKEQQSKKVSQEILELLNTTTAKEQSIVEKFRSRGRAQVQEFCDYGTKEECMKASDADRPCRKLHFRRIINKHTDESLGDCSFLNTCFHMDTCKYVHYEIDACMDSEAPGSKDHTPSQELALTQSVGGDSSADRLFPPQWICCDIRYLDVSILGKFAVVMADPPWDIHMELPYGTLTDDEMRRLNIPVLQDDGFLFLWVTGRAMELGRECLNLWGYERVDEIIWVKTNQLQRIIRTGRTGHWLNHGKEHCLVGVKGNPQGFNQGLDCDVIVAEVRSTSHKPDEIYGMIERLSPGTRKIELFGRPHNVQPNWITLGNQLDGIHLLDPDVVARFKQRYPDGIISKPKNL
# Sequence (Q9HCE5 whole entry partner): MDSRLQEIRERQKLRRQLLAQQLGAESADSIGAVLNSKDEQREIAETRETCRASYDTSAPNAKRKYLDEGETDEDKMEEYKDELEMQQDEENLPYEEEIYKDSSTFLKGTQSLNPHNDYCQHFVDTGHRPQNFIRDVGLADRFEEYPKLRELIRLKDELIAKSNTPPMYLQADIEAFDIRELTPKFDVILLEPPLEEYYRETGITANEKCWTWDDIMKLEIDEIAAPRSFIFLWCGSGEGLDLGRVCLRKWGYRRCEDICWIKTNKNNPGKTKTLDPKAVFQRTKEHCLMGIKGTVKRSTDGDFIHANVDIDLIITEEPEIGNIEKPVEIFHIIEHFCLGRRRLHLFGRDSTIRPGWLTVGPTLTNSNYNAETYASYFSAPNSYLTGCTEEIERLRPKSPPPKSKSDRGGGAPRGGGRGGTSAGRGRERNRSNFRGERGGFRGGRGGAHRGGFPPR
# protocol-summary: METTL3/14 methyltransferase assay (METTL3_14 RFMS, RapidFire mass spectrometry);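 also: recombinant His-tagged METTL3 with FLAG-tagged METTL14 from baculovirus, SAH product quantified by mass spectrometry against isotope-labelled internal standards, 60 min at room temperature, scaled between no-RNA and DMSO-only wells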
# Type: biochemical
# condition-summary: 5 nM METTL3/14, 0.2 μM RNA substrate, 0.5 μM SAM; lower limit of the assay IC50=5 nM; Compounds 266-351; read-out: METTL3_14 RFMS IC50
assay-endpoint: log10 of IC50 (log10 of the value in µM)

> print(dat)
                                    compound                             system.tested  assay.endpoint  number
 1  O=C(NCCO)c1cc(-c2cn(Cc3cn4cc(CNCC5CCC5)ccc4n3)nn2)c2cn[nH]c2c1  METTL3/14 (Homo sapiens, UniProt Q86U44)   log10 of IC50   -0.63
 2  CCC(O)CNCc1ccc2nc(CNC(=O)c3cc(=O)n4ccccc4n3)cn2c1 (stereo not drawn)  METTL3/14 (Homo sapiens, UniProt Q86U44)   log10 of IC50   -0.99
 3  Fc1cc(-c2cn(Cc3cn4cc(CNCC5CCC5)ccc4n3)nn2)c2cn[nH]c2c1  METTL3/14 (Homo sapiens, UniProt Q86U44)   log10 of IC50   -2.25
 4  CC(=O)N(Cc1ccc2nc(CNC(=O)c3cc(=O)n4ccccc4n3)cn2c1)CC1CCC1  METTL3/14 (Homo sapiens, UniProt Q86U44)   log10 of IC50    0.83
 5  Fc1ccc(-c2cn(Cc3cn4cc(CNCC5CCC5)ccc4n3)nn2)c2cn[nH]c12  METTL3/14 (Homo sapiens, UniProt Q86U44)   log10 of IC50   -2.22
 6  O=C(NCc1cn2cc(CNCC3(O)CCCC3)ccc2n1)c1cc(=O)n2ccccc2n1  METTL3/14 (Homo sapiens, UniProt Q86U44)   log10 of IC50   -1.94
 7  O=C(NCc1cn2cc(CN3CC4CCC3CC4)ccc2n1)c1cc(=O)n2ccccc2n1  METTL3/14 (Homo sapiens, UniProt Q86U44)   log10 of IC50   -1.62
 8  CC1(CNCc2ccc3nc(CNC(=O)c4cc(=O)n5ccccc5n4)cn3c2)CCC1  METTL3/14 (Homo sapiens, UniProt Q86U44)   log10 of IC50   -1.97
 9  Oc1cc(-c2cn(Cc3cn4cc(CNCC5(O)CCC5)ccc4n3)nn2)c2cn[nH]c2c1  METTL3/14 (Homo sapiens, UniProt Q86U44)   log10 of IC50   -2.16
10  Clc1ccc(-c2cn(Cc3cn4cc(CNCC5CCC5)ccc4n3)nn2)c2cn[nH]c12  METTL3/14 (Homo sapiens, UniProt Q86U44)   log10 of IC50   -1.71
11  Fc1cc(-c2cn(Cc3cn4cc(CNCC5CCCCC5)ccc4n3)nn2)c2cn[nH]c2c1  METTL3/14 (Homo sapiens, UniProt Q86U44)   log10 of IC50   -2.21
12  CCC(C)CNCc1ccc2nc(CNC(=O)c3cc(=O)n4ccccc4n3)cn2c1 (stereo not drawn)  METTL3/14 (Homo sapiens, UniProt Q86U44)   log10 of IC50   -1.82
13  CC(C)(C#N)CNCc1ccc2nc(CNC(=O)c3cc(=O)n4ccccc4n3)cn2c1  METTL3/14 (Homo sapiens, UniProt Q86U44)   log10 of IC50    0.09
14  COc1ccc2[nH]ncc2c1-c1cn(Cc2cn3cc(CNCC4(O)CCC4)ccc3n2)nn1  METTL3/14 (Homo sapiens, UniProt Q86U44)   log10 of IC50   -1.97
15  O=C(NCc1cn2cc(CNCC34CC(F)(C3)C4)ccc2n1)c1cc(=O)n2ccccc2n1  METTL3/14 (Homo sapiens, UniProt Q86U44)   log10 of IC50   -2.21
